Hi there, I'd appreciate the recorded viability at 24 h, 10 µM for every entry that follows.
- Assay Overview: MTT cytotoxicity against raw macrophages
- Assay type: cell-based, albino rats
- Condition Info: albino, rat, peritoneal macrophages (raw macrophages); 10 µM, raw macrophages, 24 h, MTT; read-out: % Cell Viability

Recorded results for 5 molecules are shown here.
Molecule	viability at 24 h, 10 µM
COc1ccc(NCN2CCCc3ccccc32)cc1	84%
CC(=O)N(CN1CCCc2ccccc21)c1ccccc1	95%
CCCN(CCC)CN1CCCc2ccccc21	53%
CC(=O)N(CN1CCCc2ccccc21)c1ccc(O)cc1	82%
c1ccc2c(c1)CCCN2CN1CCCC1	78%

// input: 5 molecules below; output: viability at 24 h, 10 µM for each
1. Clc1cccc(NCN2CCCc3ccccc32)c1
2. c1ccc2c(c1)CCCN2CN1CCNCC1
3. c1ccc2c(c1)CCCN2CN1CCCCC1
4. CCN(CC)CN1CCCc2ccccc21
5. Brc1ccc(NCN2CCCc3ccccc32)cc1

1: 83%; 2: 87%; 3: 48%; 4: 82%; 5: 91%

// input: 4 molecules below; output: viability at 24 h, 10 µM for each
1. c1ccc(N(CN2CCCc3ccccc32)c2ccccc2)cc1
2. c1ccc2c(c1)CCCN2CN1CCOCC1
3. CN1CCN(CN2CCCc3ccccc32)CC1
4. COc1cccc2c1C(=O)c1c(O)c3c(c(O)c1C2=O)C[C@@](O)(C(=O)CO)C[C@@H]3O[C@H]1C[C@H](N)[C@H](O)[C@H](C)O1 [Doxorubicin, reference compound]

1: 95%; 2: 70%; 3: 74%; 4: 40%

====

- Assay Overview: MTT cytotoxicity against raw macrophages
- Format: cell-based, albino rats
- Condition Info: albino, rat, peritoneal macrophages (raw macrophages); 1 µM, raw macrophages, 24 h, MTT; read-out: % Cell Viability
Hi there, I'd appreciate the recorded viability at 24 h, 1 µM for every entry that follows.
One number for each entry, in %.

Recorded results for 2 molecules are shown here.
> print(dat)
                                 smiles  endpoint.result
1  c1ccc(N(CN2CCCc3ccccc32)c2ccccc2)cc1               96
2              CCCN(CCC)CN1CCCc2ccccc21               79

# evaluate next
Using the record for "COc1ccc(NCN2CCCc3ccccc32)cc1" , report its viability at 24 h, 1 µM.
87

====

- Assay Overview: MTT cytotoxicity against raw macrophages
- Format: cell-based, albino rats
- Condition Info: albino, rat, peritoneal macrophages (raw macrophages); 1 µM, raw macrophages, 24 h, MTT; read-out: % Cell Viability
Assay Endpoint: viability at 24 h, 1 µM (%)
Give bare numbers, in %.

Recorded results for 2 compounds are shown here.
Compound	Endpoint Result
c1ccc2c(c1)CCCN2CN1CCOCC1 [SF2]	76
CC(=O)N(CN1CCCc2ccccc21)c1ccccc1 [SF10]	100

// input: 5 compounds below; output: viability at 24 h, 1 µM for each
1. CCN(CC)CN1CCCc2ccccc21 [SF11]
2. Clc1cccc(NCN2CCCc3ccccc32)c1 [SF8]
3. c1ccc2c(c1)CCCN2CN1CCNCC1 [SF6]
4. COc1cccc2c1C(=O)c1c(O)c3c(c(O)c1C2=O)C[C@@](O)(C(=O)CO)C[C@@H]3O[C@H]1C[C@H](N)[C@H](O)[C@H](C)O1 [Doxorubicin, reference compound]
5. Brc1ccc(NCN2CCCc3ccccc32)cc1 [SF9]

1. 95
2. 97
3. 91
4. 51
5. 98

// input: 4 compounds below; output: viability at 24 h, 1 µM for each
1. c1ccc2c(c1)CCCN2CN1CCCCC1 [SF1]
2. CN1CCN(CN2CCCc3ccccc32)CC1 [SF5]
3. c1ccc2c(c1)CCCN2CN1CCCC1 [SF3]
4. CC(=O)N(CN1CCCc2ccccc21)c1ccc(O)cc1 [SF13]

58
98
83
85
